The measurements presented in this section are drawn from PubChem BioAssay.

# MEASUREMENT_NOTES: blood-stage malaria parasite viability loss – strain 3D7, DAPI fluorescence, 100 nL, primary screen (AID 1184);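 note: parasites grown inside human red blood cells in medium with human serum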
# PROTOCOL_CONDITIONS: P. falciparum 3D7 growth, 3 d, higher = more signal
OBSERVABLE: z-score
Numbers only.

Before answering, review these 5 worked examples.
compound=[N-]=[N+]=Nc1ccccc1C[C@]1(C(=O)N2CCCCC2)N=C(c2ccc(OCCCO)cc2)O[C@H]1c1ccccc1N=[N+]=[N-] observable=z-score recorded_measurement=-2.34
compound=COCCOC(=O)N1C(=O)[C@@]2(c3cc(C#CC4(O)CCCCCC4)ccc31)[C@H](c1ccc(O)cc1)N1[C@H](c3ccccc3)[C@H](c3ccccc3)OC(=O)[C@H]1[C@@H]2C(=O)N1CCc2cc(OC)c(OC)cc2C1 observable=z-score recorded_measurement=0.0635
compound=O=C(CS)NCCCCCNC(=O)[C@H]1C[C@H]2C(=O)N[C@@H](Cc3ccccc3)C(=O)N2[C@H]1c1cccc(OCCO)c1 observable=z-score recorded_measurement=0.0332
compound=COC(=O)[C@@]1(Cc2ccc(F)cc2)[C@H]2c3cc(C(=O)N(C)C)n(Cc4ccccn4)c3C[C@H]2CN1C(=O)c1ccccc1 observable=z-score recorded_measurement=-0.393
compound=CO[C@H]1O[C@H](CO)[C@@H](OC(=O)Nc2ccc(C(F)(F)F)cc2)[C@H](OC(=O)Nc2ccccc2)[C@@H]1OC(=O)Nc1ccccc1 observable=z-score recorded_measurement=-0.0799

For each of the compounds below, state z-score.
1. COC(=O)[C@@]1(Cc2ccc(F)cc2)[C@H]2c3cc(C(=O)N(C)C)n(CCc4c[nH]c5ccc(OC)cc45)c3C[C@H]2CN1C(=O)c1ccccc1
2. CN1C(=O)C2C=CC(C(O)C3=C[C@H]4C[C@@H](C3)C4(C)C)N(Nc3ccc([N+](=O)[O-])cc3[N+](=O)[O-])C2C1=O (stereo partly specified)
3. C=C(CCCC)/C(=C/C[C@@H](OC(=O)c1ccncc1)c1ccc(CO)o1)c1cc(C(=O)OC)ccc1OC
4. O=C1O[C@@H](c2ccccc2)[C@@H](c2ccccc2)N2[C@@H](c3ccc(O)cc3)[C@]3(C(=O)Nc4ccc(C#CCCO)cc43)[C@@H](C(=O)O)[C@H]12
5. O=C(NCC(O)CO)[C@@]1(Cc2ccccc2)COC(c2ccc(OCCCO)cc2)=N1 (stereo partly specified)
6. C=C(CCCC)C(=O)CC[C@@H](OC(=O)c1ccccc1-c1ccccc1C(=O)O)c1ccc(CO)o1
7. COc1ccc([Si](C)(C)[C@@H]2[C@@H](CCO)O[C@]3(C(=O)N(Cc4ccc(N5C(=O)c6cccc7cccc5c67)cc4)c4ccccc43)[C@H]2C)cc1

**A:**
1: -1.52; 2: 0.395; 3: -0.519; 4: -0.63; 5: 0.945; 6: 1.61; 7: -2.68

For each of the compounds below, state z-score.
1. [N-]=[N+]=NCc1ccccc1C[C@@]1(C(=O)NCc2ccccc2)N=C(c2ccc(OCCCO)cc2)O[C@@H]1c1ccccc1CN=[N+]=[N-]
2. NC(=O)NCC#Cc1ccc2c(c1)[C@]1(C(=O)N2)[C@H](C(=O)NC[C@H](O)c2ccccc2)[C@H]2C(=O)O[C@H](c3ccccc3)[C@H](c3ccccc3)N2[C@@H]1c1ccccc1OCCO

**A:**
1: -2.59; 2: -1.32

For each of the compounds below, state z-score.
1. COCCOC(=O)N1C(=O)[C@@]2(c3cc(C#CCCO)ccc31)[C@H](c1ccc(O)cc1)N1[C@H](c3ccccc3)[C@H](c3ccccc3)OC(=O)[C@H]1[C@@H]2C(=O)N1CCCCCCC1
2. C=C[C@H](C)[C@H](OC(=O)Nc1ccc(OC)cc1)c1ccc(O)c2ccccc12
3. O=C1OCCC=C[C@H]2OC34C=CCN(c5ccc6ccccc6c5)C(=O)[C@H]3N(CCCCCCO)C(=O)[C@@H]4C12 (stereo partly specified)
4. [N-]=[N+]=NCc1ccccc1[C@H]1OC(c2ccc(OCCCO)cc2)=N[C@@]1(Cc1ccccc1)C(=O)O
5. O=C1OCCC/C=C\[C@H]2OC34C=CCN(Cn5nnc6ccccc65)C(=O)[C@H]3N(CCCO)C(=O)[C@@H]4C12 (stereo partly specified)
6. COC(=O)[C@@]1(Cc2ccc(OC)cc2)[C@H]2c3cc(C(=O)N4CCCC4)n(C[C@H](O)CO)c3C[C@H]2CN1C(=O)c1ccccc1
7. COC(=O)[C@@]1(Cc2ccc(F)cc2)[C@H]2c3cc(C(=O)N4CCCC4)n(Cc4ccc(Cl)c(C(F)(F)F)c4)c3C[C@H]2CN1C(=O)c1ccccc1
8. C=CC[C@@]1(C(N)=O)N=C(c2ccc(OCCCO)cc2)O[C@@H]1c1ccccc1N=[N+]=[N-]

**A:**
[-0.0358, -0.767, 0.0888, 0.45, -0.0008, -1.17, -1.45, -1.73]

For each of the compounds below, state z-score.
1. CC(C)C(O)C1C=CC2C(=O)N(C)C(=O)C2N1N1CCCCC1 (stereo unspecified)
2. C=CCOC(=O)[C@H]1[C@@H]2C(=O)O[C@@H](c3ccccc3)[C@@H](c3ccccc3)N2[C@@H](c2ccc(OCCOC(=O)[C@H]3C[C@H]4C(=O)N[C@@H](CCCC[N+](C)(C)C)C(=O)N4[C@H]3c3ccc(O)cc3)cc2)[C@]12C(=O)Nc1ccccc12
3. COCCOC(=O)N1C(=O)[C@@]2(c3cc(C#CCC(C(=O)OC)C(=O)OC)ccc31)[C@H](c1ccc(OCCO)cc1)N1[C@H](c3ccccc3)[C@H](c3ccccc3)OC(=O)[C@H]1[C@@H]2C(=O)NC[C@H](O)c1ccccc1
4. COC(=O)[C@@]1(Cc2ccc(F)cc2)[C@H]2c3cc(C(=O)N4CCCC4)n(CCc4ccc(OC)c(Br)c4)c3C[C@H]2CN1C(=O)c1ccccc1

**A:**
0.998
1.04
-2.16
-1.58
